Answer each item with its documented pIC50.
Biological target: human EphB4 (Homo sapiens)
Sequence (P54760 16-987): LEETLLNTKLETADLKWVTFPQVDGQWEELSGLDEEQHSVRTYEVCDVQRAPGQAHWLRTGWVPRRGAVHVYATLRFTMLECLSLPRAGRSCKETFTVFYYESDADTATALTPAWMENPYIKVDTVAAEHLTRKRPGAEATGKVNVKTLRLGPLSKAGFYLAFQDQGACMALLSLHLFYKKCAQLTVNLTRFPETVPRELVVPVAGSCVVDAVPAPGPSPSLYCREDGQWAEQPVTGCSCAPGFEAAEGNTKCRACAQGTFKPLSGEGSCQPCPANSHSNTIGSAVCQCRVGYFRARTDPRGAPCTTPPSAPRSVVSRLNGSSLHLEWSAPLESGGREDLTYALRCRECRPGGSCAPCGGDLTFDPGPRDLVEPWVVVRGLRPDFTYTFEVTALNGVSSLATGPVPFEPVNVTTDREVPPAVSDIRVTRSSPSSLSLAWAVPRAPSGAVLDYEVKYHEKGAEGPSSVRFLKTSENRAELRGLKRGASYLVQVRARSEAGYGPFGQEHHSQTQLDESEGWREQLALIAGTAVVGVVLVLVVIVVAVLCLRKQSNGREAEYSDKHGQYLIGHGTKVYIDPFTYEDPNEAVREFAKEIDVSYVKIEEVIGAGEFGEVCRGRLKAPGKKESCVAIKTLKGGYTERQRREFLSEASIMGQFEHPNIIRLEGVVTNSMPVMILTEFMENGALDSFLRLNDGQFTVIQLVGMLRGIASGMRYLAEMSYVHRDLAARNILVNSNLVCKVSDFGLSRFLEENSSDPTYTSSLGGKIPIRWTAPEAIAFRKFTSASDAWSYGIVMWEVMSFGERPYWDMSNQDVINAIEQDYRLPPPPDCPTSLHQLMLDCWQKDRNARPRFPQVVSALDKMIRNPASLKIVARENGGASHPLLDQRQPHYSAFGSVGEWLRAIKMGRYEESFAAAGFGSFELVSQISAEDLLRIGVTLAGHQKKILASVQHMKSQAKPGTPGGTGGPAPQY
Experiment: in vitro enzymatic kinase assay EphB4 (ADP Hunter assay kit)
Type: biochemical
Conditions: cell-free; ATP 300uM; poly (Glu4-Tyr) 800uM
pIC50: −log10 of the molar value.

Take a look at these entries with their results.
Compound	Target under test	pIC50
CNc1nc(Nc2ccc(Cl)cc2C)c2cnn(C)c2n1 [drawing 56]	human EphB4 (Homo sapiens)	5.00 to 6.00
Cc1ccccc1Nc1nc(NCc2ccccc2Cl)nc2c1cnn2C	human EphB4 (Homo sapiens)	5.00 to 6.00
CNc1nc(Nc2ccc(C)cc2C)c2cnn(C)c2n1	human EphB4 (Homo sapiens)	5.00 to 6.00
CCNc1nc(Nc2ccccc2C)c2cnn(C)c2n1	human EphB4 (Homo sapiens)	> 6.00
CCCCNc1nc(Nc2ccccc2C)c2cnn(C)c2n1	human EphB4 (Homo sapiens)	> 6.00
CCCNc1nc(Nc2ccc(Cl)cc2C)c2cnn(C)c2n1	human EphB4 (Homo sapiens)	5.00 to 6.00
Cc1ccccc1Nc1nc(NCc2ccccc2)nc2c1cnn2C	human EphB4 (Homo sapiens)	5.00 to 6.00
Cc1ccccc1Nc1nc(Nc2ccccc2)nc2c1cnn2C	human EphB4 (Homo sapiens)	5.00 to 6.00

For each entry beneath this line, provide reported pIC50.
1. Cc1ccccc1Nc1nc(N2CCN(C(=O)c3ccco3)CC2)nc2c1cnn2C
2. Cc1ccc(Nc2nc(NCc3ccco3)nc3c2cnn3C)c(C)c1
3. CCN(CC)CCNc1nc(Nc2ccccc2C)c2cnn(C)c2n1
4. Cc1ccccc1Nc1nc(NC2CCCC2)nc2c1cnn2C
5. COCCNc1nc(Nc2ccccc2C)c2cnn(C)c2n1
6. Cc1cc(Cl)ccc1Nc1nc(NC2CCCC2)nc2c1cnn2C
7. Cc1ccccc1Nc1nc(N2CCCC2)nc2c1cnn2C

(A)
1: 5.00 to 6.00; 2: 5.00 to 6.00; 3: > 6.00; 4: > 6.00; 5: > 6.00; 6: 5.00 to 6.00; 7: 5.00 to 6.00

List the reported pIC50 of each compound below.
1. Cc1ccccc1Nc1nc(NCc2ccco2)nc2c1cnn2C
2. Cc1ccccc1Nc1nc(N(C)C)nc2c1cnn2C
3. Cc1ccccc1Nc1nc(N2CCOCC2)nc2c1cnn2C
4. CCNc1nc(Nc2ccc(C)cc2C)c2cnn(C)c2n1
5. Cc1ccccc1Nc1nc(Nc2ccc(F)cc2)nc2c1cnn2C

(A)
["> 6.00", "5.00 to 6.00", "5.00 to 6.00", "5.00 to 6.00", "5.00 to 6.00"]

For each listed entry, give its pIC50.
1. COCCCNc1nc(Nc2ccccc2C)c2cnn(C)c2n1
2. CCCNc1nc(Nc2ccccc2C)c2cnn(C)c2n1
3. C=CCNc1nc(Nc2ccccc2C)c2cnn(C)c2n1
4. CNc1nc(Nc2ccccc2C)c2cnn(C)c2n1

(A)
["> 6.00", "> 6.00", "> 6.00", "> 6.00"]

Values from patent EP2025678A1
